Target: truncated human FLT3 (Homo sapiens)
Construct: truncated human FAK, RET, FLT3, JAK2, and LRRK2 (CARNA BIOSCIENCES™); purchased Carna Biosciences
Sequence (P36888 564-993 limits assumed): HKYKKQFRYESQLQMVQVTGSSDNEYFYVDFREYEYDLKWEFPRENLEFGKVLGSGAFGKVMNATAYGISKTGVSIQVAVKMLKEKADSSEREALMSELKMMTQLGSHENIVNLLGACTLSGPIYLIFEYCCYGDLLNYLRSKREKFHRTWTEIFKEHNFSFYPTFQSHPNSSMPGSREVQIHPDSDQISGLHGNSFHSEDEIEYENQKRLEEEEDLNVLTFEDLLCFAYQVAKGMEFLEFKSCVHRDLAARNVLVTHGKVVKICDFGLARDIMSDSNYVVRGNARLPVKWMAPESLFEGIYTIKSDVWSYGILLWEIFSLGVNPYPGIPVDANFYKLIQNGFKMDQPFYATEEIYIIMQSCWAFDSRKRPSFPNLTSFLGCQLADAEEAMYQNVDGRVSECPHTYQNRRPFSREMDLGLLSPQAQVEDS
Test: Inhibition of enzymatic kinase activity (LANCE Ulight)
Assay type: biochemical
Counter-ions that a name gives are not always drawn.
experimentalReadout: IC50 (nM)

Please review the entries below; each comes with its answer.
Cl.O=c1[nH]ccc2nc(N[C@H]3CCNC3)nc(Nc3ccc(C(F)(F)F)cc3)c12 [Compound 8, hydrochloride] | 0.2
COc1cc(Nc2nc(N3CCC(O)CC3)nc3cc[nH]c(=O)c23)cc(OC)c1OC | 151

[I] COc1cc(Nc2nc(N3CCC(O)CC3)nc3cc[nH]c(=O)c23)cc(OC)c1
[II] O=c1[nH]ccc2nc(N3CCC(CO)CC3)nc(Nc3ccc(N4CCOCC4)cc3)c12
# return whichever of I and II has the smaller IC50 # reply format: chosen label
II

[1] Cl.O=c1[nH]ccc2nc(N[C@H]3CCNC3)nc(Nc3ccc(N4CCOCC4)cc3)c12 [Compound 136, hydrochloride]
[2] COc1ccc(Nc2nc(N3CCC(O)CC3)nc3cc[nH]c(=O)c23)cc1C(F)(F)F
# return whichever of 1 and 2 has the smaller IC50 # reply format: chosen label
1
(1: 0.1 nM, 2: 106 nM)

[1] O=c1[nH]ccc2nc(N[C@H]3CCNC3)nc(Nc3ccc(Oc4ccccc4)cc3)c12 [Compound 125, hydrochloride]
[2] COc1cc(Nc2nc(N3CCC(O)(CO)CC3)nc3cc[nH]c(=O)c23)cc(OC)c1
# return whichever of 1 and 2 has the smaller IC50 # reply format: chosen label
1
(1: 0.6 nM, 2: 368 nM)
